Origin of the recorded values: the supplement of paper PMC12669032

- System: Bacteroides uniformis
- procedure-details: growth AUC relative to DMSO control (median of replicates) (fraction); higher = more growth (less inhibition), active = hit call of the paper
- test-context: 20 µM; 24 h
Provide the recorded growth AUC for the entries that follow.
Just the number, please, no unit after it.

Requested field: growth AUC. Item: CCOC(=O)CCN(Cc1ccccc1)SN(C)C(=O)O/N=C(/C)SC
1.09

Record: O=C(O)COc1cc(Cl)c(Cl)cc1Cl
1.01

Record: CC(C)OC(=O)C(O)(c1ccc(Br)cc1)c1ccc(Br)cc1
0.923

Record: CNC(=O)N(C)c1nnc(C(C)(C)C)s1
1.01

Record: CCc1ccc(C(=O)NN(C(=O)c2cc(C)cc(C)c2)C(C)(C)C)cc1
0.955

Record: CC#Cc1cc(C)nc(Nc2ccccc2)n1
0.975

Record: C[C@@H](Oc1ccc(Oc2cnc3cc(Cl)ccc3n2)cc1)C(=O)O
0.988

Record: N#Cc1c(Cl)c(Cl)c(Cl)c(C#N)c1Cl
0.218

Record: CCOC(=O)OC1=C(c2cc(C)ccc2C)C(=O)NC12CCC(OC)CC2 (stereo not drawn)
0.982

Record: CCOP(=S)(OCC)Oc1cnc2ccccc2n1
0.867

Record: O=[N+]([O-])c1cc(C(F)(F)F)c(Cl)c([N+](=O)[O-])c1Nc1ncc(C(F)(F)F)cc1Cl
0.0147

Record: CC(C)N(C(=O)COc1nnc(C(F)(F)F)s1)c1ccc(F)cc1
0.907

Record: CN(C)C(=S)[S-].CN(C)C(=S)[S-].[Zn+2]
0.819

Record: COCCOC(=O)C(C#N)(C(=O)c1ccccc1C(F)(F)F)c1ccc(C(C)(C)C)cc1 (stereo not drawn)
0.942

Record: COP(=O)(OC)SCn1c(=O)oc2cc(Cl)cnc21
1.03

Record: c1ccc2c(c1)cc1ccc3cccc4ccc2c1c34
0.957

Record: O=C1C2CC=CCC2C(=O)N1SC(Cl)(Cl)Cl (stereo not drawn)
1.02

Record: COC(=O)C(C)Oc1ccc(Oc2ccc(Cl)cc2Cl)cc1 (stereo not drawn)
0.963

Record: CNC(=O)O/N=C/C(C)(C)SC
1.01

Record: CCOP(=S)(OCC)Oc1nc(Cl)c(Cl)cc1Cl
1

Record: O=c1oc2ccccc2c(O)c1C1CC(c2ccc(OCc3ccc(C(F)(F)F)cc3)cc2)Cc2ccccc21 (mixture of isomers)
0.989

Record: CCOP(=S)(OCC)SCS(=O)(=O)CC
0.984

Record: O=C(O)C(F)(F)C(F)(F)C(F)(F)C(F)(F)C(F)(F)C(F)(F)C(F)(F)C(F)(F)C(F)(F)F
1.02

Record: CCOP(=S)(OCC)Oc1ccc(=O)n(-c2ccccc2)n1
0.949

Record: Clc1nc(Cl)nc(Nc2ccccc2Cl)n1
0.997

Record: COC(=O)C(C)(Cl)Cl
0.968

Record: C=CCOC(Cn1ccnc1)c1ccc(Cl)cc1Cl.O=S(=O)(O)O (stereo not drawn)
0.977

Record: CC(C)=CC1C(C(=O)OCN2C(=O)C3=C(CCCC3)C2=O)C1(C)C (stereo not drawn)
0.97

Record: CC(=O)CC(c1ccc(Cl)cc1)c1c(O)c2ccccc2oc1=O (stereo not drawn)
0.777

Record: CCOP(=S)(OCC)Oc1cc(Cl)c(SC)cc1Cl
0.989

Record: CNC(=O)CSP(=O)(OC)OC
1.01

Record: CCN(CC)c1nc(C)cc(OP(=S)(OC)OC)n1
0.976

Record: COP(=S)(OC)SC(CC(=O)O)C(=O)O (stereo not drawn)
0.99

Record: CCCSP(=S)(OCC)Oc1ccc(Cl)cc1Cl (stereo not drawn)
1.01

Record: CC1=C(C(=O)Nc2ccccc2)SCCO1
0.993

Record: Cc1ccn2nc(S(=O)(=O)Nc3c(F)cccc3F)nc2n1
1.06

Record: CCOP(=S)(OCC)SCCSCC
0.973

Record: OC[C@@H](O)[C@H]1O[C@@H]2O[C@H](C(Cl)(Cl)Cl)O[C@@H]2[C@H]1O (mixture of isomers)
1.04

Record: CC[C@H](C)[C@H]1O[C@]2(C=C[C@@H]1C)C[C@@H]1C[C@@H](C/C=C(\C)[C@@H](O[C@H]3C[C@H](OC)[C@@H](O[C@H]4C[C@H](OC)[C@@H](NC)[C@H](C)O4)[C@H](C)O3)[C@@H](C)/C=C/C=C3\CO[C@@H]4[C@H](O)C(C)=C[C@@H](C(=O)O1)[C@]34O)O2.O=C(O)c1ccccc1
0.322

Record: CNC(=O)Oc1cc(C)c(N(C)C)c(C)c1
1

Record: CC(C)N(C(=O)SCC(Cl)=C(Cl)Cl)C(C)C
0.989

Record: Fc1ccc(Oc2ccnc3cc(Cl)cc(Cl)c23)cc1
0.875

Record: CCOP(=S)(OCC)SCCS(=O)CC (stereo not drawn)
1.05

---

- Tested on: Escherichia coli IAI1
- procedure-details: growth AUC relative to DMSO control (median of replicates) (fraction); higher = more growth (less inhibition), active = hit call of the paper
- test-context: 20 µM; 24 h
attribute-measured: growth AUC
Just the number, please, no unit after it.

Quick check: growth AUC on Escherichia coli IAI1, item CC1(C)CN=C(NN=C(/C=C/c2ccc(C(F)(F)F)cc2)/C=C/c2ccc(C(F)(F)F)cc2)NC1 ?
1.04

Record: CN1CSC(=S)N(C)C1
0.994

Record: CC(C)(C)C(=O)C(Oc1ccc(Cl)cc1)n1cncn1 (configuration not stated)
1.02

Record: CCOc1cc(C(C)(C)C)ccc1C1COC(c2c(F)cccc2F)=N1 (configuration not stated)
1.02

Record: CCNc1nc(Cl)nc(NC(C)(C)C)n1
1.01

Record: OCC(O)CCl (configuration not stated)
1

Record: COP(=S)(NC(C)C)Oc1ccccc1C(=O)OC(C)C (configuration not stated)
0.988

Record: Oc1ccc(Cc2ccc(O)cc2)cc1
0.979

Record: CCC(C)(C)C(=O)OC1=C(c2ccc(Cl)cc2Cl)C(=O)OC12CCCCC2
0.949

Record: CNC(=O)Oc1ccc(N(C)C)c(C)c1
1.01

Record: Cc1cc(Cl)ccc1O[C@H](C)C(=O)O
0.98

Record: Cc1nnc(-c2ccccc2)c(=O)n1N
0.995

---

- Tested on: Parabacteroides merdae
- procedure-details: growth AUC relative to DMSO control (median of replicates) (fraction); higher = more growth (less inhibition), active = hit call of the paper;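 active = AUC reduced over 20% with Padj below 0.05 in at least 2 of 3 replicates; inactive = otherwise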
- test-context: 20 µM; 24 h
Allowed answers: true (1) (active), false (0) (inactive)

So what was the verdict on ClC1=C(Cl)C2(Cl)C3C(Cl)C=CC3C1(Cl)C2(Cl)Cl (stereo unspecified) in this test?
false (0)

Record: CCN(CC)c1c([N+](=O)[O-])cc(C(F)(F)F)c(N)c1[N+](=O)[O-]
false (0)

Record: CCC(C)(NC(=O)c1cc(Cl)c(C)c(Cl)c1)C(=O)CCl (stereo unspecified)
false (0)

Record: C[N+](C)(C)CCCl.[Cl-]
false (0)

Record: COCC(=O)N(c1c(C)cccc1C)N1CCOC1=O
false (0)

Record: CC(C)(C)N(NC(=O)c1ccc(Cl)cc1)C(=O)c1ccccc1
false (0)

Record: CN(C)C(CSS(=O)(=O)[O-])CSS(=O)(=O)[O-].[Na+].[Na+]
false (0)

Record: CCCCOC(=O)[C@@H](C)Oc1ccc(Oc2ccc(C#N)cc2F)cc1
false (0)

Record: CC1(C)C(C=C(Cl)Cl)C1C(=O)OC(C#N)c1cccc(Oc2ccccc2)c1 (mixture of isomers)
false (0)

Record: COP(=S)(OC)Oc1ccc(S(C)=O)c(C)c1 (stereo unspecified)
false (0)

Record: Oc1ccc(C(c2ccc(O)cc2)(C(F)(F)F)C(F)(F)F)cc1
true (1)

Record: CCOP(=S)(OCC)SCCS(=O)(=O)CC
false (0)

Record: CCOCCN(C(=O)CCl)C(=C(C)C)c1ccccc1
false (0)

Record: CCOP(=S)(OCC)SCSCC
false (0)

Record: Nc1ncn[nH]1
false (0)

Record: CC1(C)[C@H](C(=O)O[C@H](C#N)c2cccc(Oc3ccccc3)c2)[C@@H]1/C=C\C(=O)OC(C(F)(F)F)C(F)(F)F
false (0)

Record: CNC(=O)O/N=C(\SC)C(=O)N(C)C
false (0)

Record: CN(C)c1nc(=O)n(C2CCCCC2)c(=O)n1C
false (0)

Record: CO/C=C(/C(=O)OC)c1ccccc1Oc1cc(Oc2ccccc2C#N)ncn1
false (0)

Record: CCCCOC(=O)c1ccccc1C(=O)OCCCC
false (0)

Record: COc1cc(Cl)c(OC)cc1Cl
false (0)

Record: CC(C)C1(C)N=C(c2ncccc2C(=O)O)NC1=O (stereo unspecified)
false (0)

Record: Oc1c(Cl)c(Cl)cc(Cl)c1Cl
false (0)

Record: O=C(O)COc1cc(Cl)c(Cl)cc1Cl
false (0)

Record: CC1CCCCC1NC(=O)Nc1ccccc1 (mixture of isomers)
false (0)

Record: CNC(=O)ON=C(C)C(C)SC (stereo unspecified)
false (0)

Record: CCOC(=O)c1cn2nc(OP(=S)(OCC)OCC)cc2nc1C
false (0)

Record: CCOP(=S)(OCC)SCCS(=O)CC (stereo unspecified)
false (0)

Record: CN/C(=N\[N+](=O)[O-])NCc1cnc(Cl)s1
false (0)

Record: FC(F)C(F)(F)OCC(Cn1cncn1)c1ccc(Cl)cc1Cl (stereo unspecified)
false (0)

Record: COC(=O)C(Cl)Cl
false (0)

Record: [Cl][Sn]([c]1ccccc1)([c]1ccccc1)[c]1ccccc1
true (1)

Record: CCc1nn(C)c(C(=O)NCc2ccc(C(C)(C)C)cc2)c1Cl
false (0)

Record: O=C(NC(=O)c1c(F)cccc1F)Nc1ccc(Cl)cc1
false (0)

Record: Nc1cnn(-c2ccccc2)c(=O)c1Cl
false (0)

Record: CCOP(=S)(OCC)Oc1cc(C)nc(N(CC)CC)n1
false (0)

Record: CCNP(=S)(OC)O/C(C)=C/C(=O)OC(C)C (stereo unspecified)
false (0)

Record: COP(=O)(OC)OC1=C(Cl)C2C=CCC12 (stereo unspecified)
false (0)

Record: Oc1ccc(Cl)cc1Cc1cc(Cl)ccc1O
true (1)

Record: CS(=O)(=O)NC(=O)c1cc(Oc2ccc(C(F)(F)F)cc2Cl)ccc1[N+](=O)[O-]
false (0)

Record: CC(C)OC(=O)C(C(=O)OC(C)C)=C1SCCS1
false (0)

Record: C#CCN1C(=O)COc2cc(F)c(N3C(=O)C4=C(CCCC4)C3=O)cc21
false (0)

Record: CCOP(=S)(OCC)Oc1ccc(=O)n(-c2ccccc2)n1
false (0)

Record: C#CCOS(=O)OC1CCCCC1Oc1ccc(C(C)(C)C)cc1 (mixture of isomers)
false (0)

Record: CCCN(CC1CC1)c1c([N+](=O)[O-])cc(C(F)(F)F)cc1[N+](=O)[O-]
false (0)

Record: CCOP(=S)(OCC)Oc1ccc2c(C)c(Cl)c(=O)oc2c1
false (0)
